Reference for the values: the nanobody polyreactivity screen of Harvey et al. (2022)

ASSAY_DETAILS: yeast display, Sf9 membrane polyspecificity reagent, FACS + sequencing; frameworks hold sequencing errors
MEASURED_ATTRIBUTE: polyreactivity (PSR sort gate)

PRIMARY_SEQUENCE	MEASURED_ATTRIBUTE	RECORDED_VALUE
QVQLVESGGGLLQAGGSLRLSCAASGSIFGYYAMGWYRQAPGKERELVAAISRSGGSTYYADSVKGRFTISRDNAKNTVYLQMNSLKPEDTAVYYCAADDYPYGNYYWGQGTQVTVSS	polyreactivity (PSR sort gate)	high polyreactivity
QVQLVESGGGIVHAGGSLRLSCAASGIIFLFYAMGWYRQARVKERELVASITWSGGSTYYADSVKGRFTISRDNAKNNVFLQMLSLKPEDTSVYYCAASVNIISYLVHSEFLGGELDYWGQGTQVTVSS	polyreactivity (PSR sort gate)	low polyreactivity
QVQLVESGVGLVQAGGSLRLSCAASGFTLGRNAMGWYRQAPGKERELVASISGRGGSSYYADSVKGRFTISRDNAKNSVYLQMNSLKPEDTAVYYCAARGVSGKYYYWGQGTQVTVSS	polyreactivity (PSR sort gate)	high polyreactivity
QVQLVESGGGLVQAGGSLRLSCAASGLTFDPYAMGWYRQAPGKEREFVATITTSGDSTYYADSVKGRFTISRDNAKNTVYLQMNSLTPEDTAVYYCNTQSRTLGWPLDYWGQGTQVTVSS	polyreactivity (PSR sort gate)	high polyreactivity
QVQLEESGGRLVQAGGSLRLSCAASGRIFNYYAMGWYRQAPGQERELVAAISNGGSTYYADSVKGRFTISRDNAKNTVYLQMNSLKPEDTAVYYGAAYQTYYARTELDYWGQGTLVTVSS	polyreactivity (PSR sort gate)	high polyreactivity

# input Entry under review: QVQLVESGAGLVKAGGSLRLSCASSGRILDFYDMGWYRQAPGKERELVAAITSGTSTYYADSVKGRFTISRDNAKYTVYLQMNSLKPEDTAVYYCAAAHVPVGQYVYWYDYWGQGTQVTVSS . Reported polyreactivity (PSR sort gate)?
# output low polyreactivity

# input Need polyreactivity (PSR sort gate), item QVQLVESGGGLVQAGGSLRLSCAASGRIFGYYAMGWYRQAPGKERELVAPITKTVGGTYYADSVKGRFTISRDNAKNTVYLQMNSLKPEDTAVYYCAARVWTGNGRSKGAYDYWGQGTQVTVSS
# output high polyreactivity

---

ASSAY_DETAILS: yeast display, Sf9 membrane polyspecificity reagent, FACS + sequencing; frameworks hold sequencing errors
MEASURED_ATTRIBUTE: polyreactivity (PSR sort gate)

Reference set (8 entries):
PRIMARY_SEQUENCE	polyreactivity (PSR sort gate)
QVQLVESGGGLVQAGGSLRLSCAASGSIFTLYAMGWYRQAPGKEREFVAGISFSTGRTYYADSVKGRFTISRDNAKNTVYLQMNSLKPEDTAVYYCAAYVSHYWYGVYRDGYWGQGTQVTVSS	low polyreactivity
QVQLVESGGGLVQAGGSLRISCAASGLTLTSNDMGWYRQAPGKEREFVASITWSGGSTSYADSVKGRFTISRDNAKNTVYLQMNSLKPEDTAVYYCAARPRYFSKSWRGYYYWGQGTQVNVSS	high polyreactivity
QVQLVESGGGLVQAAGSLRLSCAASGRTFSGYAMGWYRQAPGKERELVAAIRWSGGSTYYADSVKGRFTISRDNAKNTVYLQMNSLKPEDTAVYYCATRDYYYRYGYWGQGTQVTVSS	high polyreactivity
QVQLVESGGGLVQAGGSLRLSCAASGRTYLPNDMGWYRPAPGKERELVAAITDSGGDTYYADSVKGRFTISRDIAKNTVYLQMNSLKPEDTAVYYCAADYYYYGSYYPVEYWGHGTQVTVSS	high polyreactivity
QVQLVDSGGGLVQAGGSLRLSCAASGYIDGTYAMGWYRQAPRKERDLVASISSSGGSTYYADSVNGRFTISRDNAKNTVYLQMNSLKPEDTAVYYCNAERKIIAYLWWYDYWGQGTQVTVSA	low polyreactivity
QVQLVESGGGLVQAGGSLRLSCDASGIIFASYAMGWYRQAPGKERELVAAISGGGSTYYADSEKGRFTISRDNAKNTVYLQMNSLKPVDTAVYYCNAEAYYRWLTNIWYSDFDYWGLGTQVTVSS	low polyreactivity
QVQLVESGGGLVQAGGSLRLSCAASGSTLQINGMGWYRQAPGKERELVAAISIGGDTNYADSVKGRFTISRDNAMNTVSLQMNSLKPEDTAVYYCAASGAYDEAYGEAFYYWGQGTQVIVSS	low polyreactivity
QVQLVESGGGLVQAGGSLRLSCAASGLIFTSYPMGWDRQAPGKERELVAAIDTSGGSTYYADSVKGRFTISRDNAKNTVYLQMNSLKPEDTAVYYCAATSTYRSYLEYDYWGQGTQVTVSS	low polyreactivity

Moving on to another sequence below.
# input // query polyreactivity (PSR sort gate) value for entry QVQLQESGGGLMQAGGNLRLSCAASGYISTHYDMDWYRQAPGKERELVARIDDGAITNYADSVKGRFTISRDNAKKTVYLQMNSLKPEDTAVYYCAVYYGDEYYHDYWGQGTQVTVSS
# output low polyreactivity

---

ASSAY_DETAILS: yeast display, Sf9 membrane polyspecificity reagent, FACS + sequencing; frameworks hold sequencing errors
MEASURED_ATTRIBUTE: polyreactivity (PSR sort gate)

Examples from the recorded data:
PRIMARY_SEQUENCE	polyreactivity (PSR sort gate)
QVQLVESGGGLVQAGGSLRLSCAASGFTFLSYTMGWYSQAPGKERELVASITASGTRTYYADSVKGRFIISRDNAKNTVYLQMNRLKPEDTAVYYFAARWISVWSEGAEHDYWGQGTQVTVSS	low polyreactivity
QVQLVESGGGLVQAGGSLPLSCAASGSTFRYNAMGWYRQAPAKERELVAAISSGSSTNYADSVKGRFTISLDNAKNTVYLQMKSLKPEDTAVYYCARRPFYYHQLDDDYWGQGTQVTVSS	low polyreactivity
QDQLVESGGGLVQAGGSLRLICAASGRIFNVYAMGWYRQAPGKERELVAAISWRGGNTYYADSVKGRFTISRDNAKNTVYLQMNSLKPEDTAVYYCAAVYRGYDYWGQGTQVTVSS	high polyreactivity
QVQLVESGGGLVQAGGSLRLSCDASGRIFVVYAMGWSRQAPGKERELVAAITGGGRTNYADSVKGRFTISRDNAKNTVYLQMNSLKPEDTAVYYCAAGTRSDARRYYYWGQGTQVTVSS	low polyreactivity
QVQLVESGGGLVQAGGSLRLSCAASGRTFTQYAMRWYRQAPGKERELVAAISWRGGSTYYADSVKGRFTISRDNAKNTVYLQMNSLKPEDTAVYYCAKRYFRGYPLYDYWGQGTQVTVSS	high polyreactivity

# input Recorded polyreactivity (PSR sort gate) of QVQLVESGGGLVQAGGSLRLSCAASASIFRSYAMGWYRQAPGKERELVAAISWRGDSTYYADSVKGRFTISRDNAKHTVYLQMNSLKPEDTAVYYCNVQRSLRMDYWGQGTQGTVSS , please.
# output high polyreactivity

# input Which polyreactivity (PSR sort gate) value is on record for QVQILESGGGLVQAGGSLGLSCAASGSTFPPYAMGWYRQAPGKERELVATITRGGSTYYADSVKGRFTFSRDNAKNTVYVQMNSLKPADTAVYDCNAKVNRSRRSNLYDYWGQGTQVTVSS ?
# output high polyreactivity

# input Return reported polyreactivity (PSR sort gate); argument: QVQLVESGGGLVQAGGSLRLSCAASGFTFLIYAMGWYRQAPGKERELVAAITWRGSGTYYADSVKGRFTISRDNAKNTVYLQMNSLNPEDTAVFYCGARTARRTYDYWGQGTQVTVSS
# output low polyreactivity

# input Consider the sequence QVQLEESGGGLVQAGGSLRLSCAASGRTLRVNAIGWYRQAPGKERELVAANSSGGRTNYADSVKGRFTISRDNAKNTVYLQMNSLKPEDTAVYYCAVDRPRFPSRPPYHKYDYWGQGTQVTVSS and give its measured polyreactivity (PSR sort gate).
# output low polyreactivity

# input Bench note: what polyreactivity (PSR sort gate) did QVQLVESGGGLVQAGGSLRLSCAASGRIIRWNAMGWYRQAPGKERELVAAITYSSGSTYYADSVKGRFTISRDNAKNTVYLQLNSLKPEDTAVYYCAAYSYGWDYSYDYWGQGTQVNVSS show?
# output low polyreactivity

# input Fill in: polyreactivity (PSR sort gate) of QVRLVESGGGLVQAGGSLRLSSAASGRIFNGNAMGWYRQAPGKERELVAAINRGGSTNYADSVKGRFTISRDNAKNTVYLQMNSLKPEDTAVYYCAAELLYATRWRRYSGYYDWGQGTQVTVSS is ___
# output high polyreactivity

---

ASSAY_DETAILS: yeast display, Sf9 membrane polyspecificity reagent, FACS + sequencing; frameworks hold sequencing errors
MEASURED_ATTRIBUTE: polyreactivity (PSR sort gate)

The cases that follow already have their polyreactivity (PSR sort gate) on record.
PRIMARY_SEQUENCE	polyreactivity (PSR sort gate)
QVQLVESGGGLVQAGGSLRLTCAASGSTFHLYAMGWYRQAPGKEREFVAAIRGRGGNTYADSVKGRFTISRDNAKNTVYLQMNSLKPEDTAVNYCAAPLLRDLRSPYSYNYWGQGTQVTVSS	low polyreactivity
QVQLVESGGGLVQAGGTLRLSCAASGSTFAVNAMGWYRQPPGKERELVAAISRSGGSTYYADSVKGRFTISRDNAKNTDYLQMKSLKPEDTAFYYCNTRTPYWFKSDYWGQGTQVTVSS	low polyreactivity
QVQLVESGGGLVQAGGSLRLSCAASGRTFRPYAMGWYRQAPGKERELVAAISSRGSSTYYADSVKGRFTISRDNAKNNVYLQMNSLKPEDTAVYYCAARSYWGGLRYDYWGQGTQVTVSS	high polyreactivity
QVQLVESGGGLVQAGGSLRLSCAASGITFYRYAKGSYRQAPGKERELVAAIRRAGSTYYADSVKGRVTISRDNAKKTVYLQMNSLKPEDTAVYYCNARYGIGMNYWGQGTQVTVSS	high polyreactivity

# input Which value of polyreactivity (PSR sort gate) has been reported for QVQLVESGGGLVQAGGSLRLSCAASGSTFPYYALGLYRQAPGKERELVAAISRGGGITYYADSVKGRFSISRDNAKNTVYLQMNCLKPEDTAVYYCAAYTAAEQGYNYWGQGTQVTVSS in the records?
# output high polyreactivity

# input What does the record list as polyreactivity (PSR sort gate) for QVQLVESGGGLVQAGGSLRLSCAASGIIFDYTAMGWYRQAPGKERELVAAITSTDNTNYADSVKGRFTISRDNAKNTVYLQMNSLKPEDTAVYYCNTDYWLSVVYAMDYWGQGTQVTVSS ?
# output low polyreactivity

# input Need polyreactivity (PSR sort gate), item QVQLVESGGGLVQAGGSLRLSCAASGFIFGAYAMGWYRQAPGKERELVAAITRSGGNTYYADSVKGRFTISRDNAKNTVYLQMNSLKPEDTAVYYCNVVGVYHYEDYYYWGQGTQVTVSS
# output high polyreactivity

# input What measured polyreactivity (PSR sort gate) goes with QVQLVESGGGLVQAGGSLRLSCAASGRTVNIYAMGWYRQAAGKERELVADISYSDGSTDYADSVKGRFTISRDNAKNTVYLQMNSLKPEDTAVYYCAAYYYYYYGFGQRYYSWGQGTQVTVSS ?
# output low polyreactivity

# input What measured polyreactivity (PSR sort gate) goes with QVQLVESGGGLVQAGGSLRLSCAASGITFRFNARVWYRQEPGKEREFVAAITYSGDSTYYADSVKGRFTISRDNAKNTVYLQMNSLKPEDTAVYYCAADYYAISRRIFYYWGQGTQVTVSS ?
# output low polyreactivity

# input I have this sequence here, QVQLVESGGGLVQAGGSLRLSCAASGSIFTTNAMGWYRQAPGKERELVARIDRAGSTYYADSVKGRFTISRDNAKNTVYLQMNSLKPEDTSVYYCAVEAVLSRPYATKFDYWGQGTEVTVSS , and I need its recorded polyreactivity (PSR sort gate).
# output low polyreactivity

# input Name the reported polyreactivity (PSR sort gate) value associated with the sequence QVQLVESGGGLVQAGGSLRLSCAASGSTFTNYAMGWYRQAPGKERELLAAINNDRTNYADSVKGRFTISRDNAMNTVYLQMNSLKPEDTAVYYCAARLGGRRRFGYWGQGTQVTVSS
# output high polyreactivity
